Target: T1, rat α-CGRP (Rattus norvegicus, UniProt P01256)
T1 construct: rat α (1-37); purchased GenScript Corporation or Global Peptide Services
T1 sequence (P01256 83-119 limits assumed): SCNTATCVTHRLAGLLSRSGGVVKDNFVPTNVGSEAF
Experiment: Biacore SPR affinity of Fab fragments to N-biotinylated rat α-CGRP on SA chip
Type: binding
Details: 37° C., screening mode except underlined values
endpoint: α-rat koff (s⁻¹)
Kindly provide the numeric value in s⁻¹ only, without the unit symbol.

>  <molecule>
M42: G1 variant; L1 R28N; L2 G50A L56T; H2 E54K A57N H61F; HC-FW3 L99T A100V (antibody, V domains shown) VH: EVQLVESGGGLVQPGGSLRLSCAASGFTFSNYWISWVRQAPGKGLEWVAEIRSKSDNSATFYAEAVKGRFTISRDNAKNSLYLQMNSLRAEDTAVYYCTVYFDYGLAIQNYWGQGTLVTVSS VL: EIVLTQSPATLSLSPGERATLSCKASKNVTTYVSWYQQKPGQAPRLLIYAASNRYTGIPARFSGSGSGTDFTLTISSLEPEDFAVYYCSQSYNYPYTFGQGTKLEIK

>  <result.value>
0.00752

$$$$
>  <molecule>
M53: G1 variant; L1 R28N; L2 L561; H2 E54K A57N S58G; HC-FW3 L99T A100V (antibody, V domains shown) VH: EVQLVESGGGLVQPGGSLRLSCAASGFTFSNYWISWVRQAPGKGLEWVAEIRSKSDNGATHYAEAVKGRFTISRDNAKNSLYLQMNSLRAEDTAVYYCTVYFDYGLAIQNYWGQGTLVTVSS VL: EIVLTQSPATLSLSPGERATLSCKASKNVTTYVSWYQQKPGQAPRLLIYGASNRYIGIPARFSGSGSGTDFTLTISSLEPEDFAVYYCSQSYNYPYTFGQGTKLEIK

>  <result.value>
0.00191

$$$$
>  <molecule>
M64: G1 variant; L1 R28N T30G; L2 G50A; H2 E54K A57N S58V; HC-FW3 L99T A100V (antibody, V domains shown) VH: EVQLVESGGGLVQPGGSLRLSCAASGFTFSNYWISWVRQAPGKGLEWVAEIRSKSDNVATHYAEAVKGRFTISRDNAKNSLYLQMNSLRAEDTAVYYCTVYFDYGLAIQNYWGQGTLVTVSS VL: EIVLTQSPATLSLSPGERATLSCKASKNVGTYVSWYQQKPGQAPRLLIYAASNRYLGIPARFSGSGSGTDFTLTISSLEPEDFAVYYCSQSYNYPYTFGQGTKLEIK

>  <result.value>
0.0234

$$$$

GET /values?readout=α-rat koff&item= M67: G1 variant; L1 R28N T30G; L2 L561; H2 E54K A57F; HC-FW3 L99T A100V (antibody, V domains shown) VH: EVQLVESGGGLVQPGGSLRLSCAASGFTFSNYWISWVRQAPGKGLEWVAEIRSKSDFSATHYAEAVKGRFTISRDNAKNSLYLQMNSLRAEDTAVYYCTVYFDYGLAIQNYWGQGTLVTVSS VL: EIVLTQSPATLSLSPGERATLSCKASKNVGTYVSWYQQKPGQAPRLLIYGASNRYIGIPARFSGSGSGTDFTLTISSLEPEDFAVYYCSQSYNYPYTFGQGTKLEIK
0.00171
